- measurement.protocol: in vivo
- particulars: dog, po, 2200 mg
assay.metric: Cmax

Per the record, CO[C@H]1/C=C/O[C@@]2(C)Oc3c(C)c(O)c4c(O)c(c5c(nc6cc(C)ccn65)c4c3C2=O)NC(=O)/C(C)=C\C=C\[C@H](C)[C@H](O)[C@@H](C)[C@@H](O)[C@@H](C)[C@H](OC(C)=O)[C@@H]1C [amorph, Rifaximin] has Cmax of 1390 ng/mL

----------
- measurement.protocol: Dog pharmacokinetics of API, amorphous and solid dispersion capsules, cross-over
- Design: species or system male beagle dogs
- particulars: male, beagle, in vivo, po, 2200 mg, Tmax, median
assay.metric: Tmax
Give the number first and the unit second.

Per the record, CO[C@H]1/C=C/O[C@@]2(C)Oc3c(C)c(O)c4c(O)c(c5c(nc6cc(C)ccn65)c4c3C2=O)NC(=O)/C(C)=C\C=C\[C@H](C)[C@H](O)[C@@H](C)[C@@H](O)[C@@H](C)[C@H](OC(C)=O)[C@@H]1C [API, Rifaximin] has Tmax of 1 h

----------
- measurement.protocol: Dog pharmacokinetics of API, amorphous and solid dispersion capsules, cross-over
- Set-up: species or system male beagle dogs
- particulars: male, beagle, in vivo, po, 2200 mg, Half-life, geometric mean
- Description: Presented herein are dog pharmacokinetics (PK) studies comparing various forms of rifaximin. […] In the SD dosage form, the polymer used was HPMC-AS at a drug to polymer ratio of 50:50. The formulation also comprised pluronic F127 and crosscarmellose sodium (see Example 4). […] Blood was collected at timed intervals for 24 h after dosage administration, and plasma was harvested for LC-MS/MS analysis.
assay.metric: half-life

Per the record, CO[C@H]1/C=C/O[C@@]2(C)Oc3c(C)c(O)c4c(O)c(c5c(nc6cc(C)ccn65)c4c3C2=O)NC(=O)/C(C)=C\C=C\[C@H](C)[C@H](O)[C@@H](C)[C@@H](O)[C@@H](C)[C@H](OC(C)=O)[C@@H]1C [API, Rifaximin] has half-life of 419 min
